// data source = paper PMC10314921

- TARGET DESC: BAK (Homo sapiens)
- Sequence (Q16611 15-186): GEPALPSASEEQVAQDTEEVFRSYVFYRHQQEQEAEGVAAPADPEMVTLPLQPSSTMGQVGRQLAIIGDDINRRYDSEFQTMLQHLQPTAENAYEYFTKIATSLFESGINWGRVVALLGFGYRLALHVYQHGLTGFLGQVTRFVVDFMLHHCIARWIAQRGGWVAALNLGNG
MEASURED ATTRIBUTE: pKd
Expect pKd as a plain number equal to -log10 of the molar concentration.

# get_value(readout='pKd', item= CC1=NN(c2ccc(C)c(C)c2)C(=O)/C1=N\Nc1cccc(-c2cccc(C(=O)O)c2)c1O )
5.92
